Test system: Escherichia coli
Assay: Antibacterial activity against Escherichia coli ATCC 25922 after 24 hrs by micro-broth dilution method
Assay type: functional
Settings: ATCC 25922, 24 h
log10(MIC) for assorted compounds
A difference of one corresponds to tenfold MIC; all values are log10 with MIC in µg/mL.

The cases that follow already have their log10(MIC) on record.
| compound | result.type | result.number |
| --- | --- | --- |
| OCCN(CCO)Cc1ccc(Cl)c(Cl)c1 | log10(MIC) | 2.11 |
| Clc1ccc(CN(CCn2cncn2)CCn2cncn2)c(Cl)c1.O=[N+]([O-])O | log10(MIC) | 1.81 |

Task item: Reported log10(MIC) for Fc1ccc(CN(CCn2cncn2)CCn2cncn2)c(F)c1 : what is it?
Reply: 1.81

meta.source: ChEMBL document CHEMBL1240446
